Data origin, for the record: patent US8003655B2

pIC50 by entry:
Target: Tie2 (Homo sapiens)
Construct: A recombinant fusion protein of GST and the intracellular domains of Tie2; GST
Sequence (Q02763 770-1124 limits assumed): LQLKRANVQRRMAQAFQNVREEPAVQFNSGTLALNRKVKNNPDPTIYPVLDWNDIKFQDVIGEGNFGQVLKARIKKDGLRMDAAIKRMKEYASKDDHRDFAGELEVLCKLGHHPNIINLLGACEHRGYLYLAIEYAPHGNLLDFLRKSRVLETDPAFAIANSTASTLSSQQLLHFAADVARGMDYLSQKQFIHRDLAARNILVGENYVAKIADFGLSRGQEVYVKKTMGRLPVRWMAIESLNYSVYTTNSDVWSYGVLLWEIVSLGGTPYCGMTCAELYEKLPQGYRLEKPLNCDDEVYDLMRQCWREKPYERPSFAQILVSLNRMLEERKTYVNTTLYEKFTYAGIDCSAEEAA
Assay: Tie2-Kinase HTRF-Assay without kinase preactivation (assay 2)
Settings: 10 μM ATP, pIC50 = −log IC50 in molar concentration, read-out: Tie 2 activity (assay 2)
pIC50: −log10 of the molar value.

Past entries and their recorded results:
compound="CS(=N)(=O)c1cccc(Nc2ncc(-c3ccc(NC(=O)Nc4cc(C(F)(F)F)ccc4F)c(F)c3)c(NCCc3ccccc3)n2)c1 (racemic)" parameter=pIC50 measurement="6.00 to 7.00"
compound="COc1nc(Nc2cccc(S(C)(=N)=O)c2)ncc1-c1ccc(NC(=O)Nc2cc(C(F)(F)F)ccc2F)c(F)c1 (racemic)" parameter=pIC50 measurement="> 7.00"
compound="CCOC(=O)N=S(C)(=O)c1cccc(Nc2ncc(-c3ccc(NC(=O)C4(c5ccccc5)CC4)cc3)c(N[C@H](C)CO)n2)c1 (mixture of isomers)" parameter=pIC50 measurement="6.00 to 7.00"
compound="CCOC(=O)N=S(C)(=O)c1cccc(Nc2ncc(-c3ccc(NC(=O)Nc4cc(C(F)(F)F)ccc4F)c(F)c3)c(SC)n2)c1 (racemic)" parameter=pIC50 measurement="> 7.00"
compound="CCOC(=O)N=S(C)(=O)c1ccc(Nc2ncc(-c3ccc(NC(=O)C4(c5ccccc5)CC4)cc3)c(N[C@H](C)CO)n2)cc1 (mixture of isomers)" parameter=pIC50 measurement="6.00 to 7.00"

Reading of pIC50 for C[C@H](CO)Nc1nc(Nc2cccc(S(C)(=N)=O)c2)ncc1-c1ccc(NC(=O)Nc2cccc(C(F)(F)F)c2)cc1 (mixture of isomers) with Tie2 (Homo sapiens): > 7.00

Reading of pIC50 for C[C@H](CO)Nc1nc(Nc2ccc(S(C)(=N)=O)cc2)ncc1-c1ccc(NS(=O)(=O)c2cccc(Cl)c2Cl)cc1 (mixture of isomers) with Tie2 (Homo sapiens): 6.00 to 7.00

Reading of pIC50 for CCOC(=O)N=S(C)(=O)c1cccc(Nc2ncc(-c3ccc(NC(=O)Nc4cccc(C(F)(F)F)c4)cc3)c(N[C@H](C)CO)n2)c1 (mixture of isomers) with Tie2 (Homo sapiens): 6.00 to 7.00

Reading of pIC50 for CCOC(=O)N=S(C)(=O)c1ccc(Nc2ncc(-c3ccc(NC(=O)Nc4cccc(C(F)(F)F)c4)cc3)c(N[C@H](C)CO)n2)cc1 (mixture of isomers) with Tie2 (Homo sapiens): > 7.00

Reading of pIC50 for CCOC(=O)N=S(C)(=O)c1cccc(Nc2ncc(-c3ccc(NS(=O)(=O)c4cccc(Cl)c4Cl)c(F)c3)c(N[C@H](C)CO)n2)c1 (mixture of isomers) with Tie2 (Homo sapiens): 6.00 to 7.00

Reading of pIC50 for COc1nc(Nc2cccc(S(C)(=N)=O)c2)ncc1-c1ccc(NS(=O)(=O)c2cccc(Cl)c2Cl)c(F)c1 (racemic) with Tie2 (Homo sapiens): 6.00 to 7.00

Reading of pIC50 for CNc1nc(Nc2cccc(S(C)(=N)=O)c2)ncc1-c1ccc(NC(=O)Nc2cc(C(F)(F)F)ccc2F)c(F)c1 (racemic) with Tie2 (Homo sapiens): > 7.00
